Hello, the source for this data is the supplement of paper PMC10646978, in case you need it.

NF-kB reporter values, listed per item
Test system: RAW-Dual (murine macrophage reporter line)
Assay: NF-kB reporter (SEAP) activity fold change vs agonist alone; higher = enhanced NF-kB activity
Conditions: modulator concentration 10 µM; agonist: LPS 0.1 ug/mL
Give a plain numeric answer without units written out.

Example entries and their recorded answers appear below.
>>> number("Cc1[nH]c(/C=C2\\C(=O)Nc3ccccc32)c(C)c1CCC(=O)O")
0.853
>>> number("CC(Cc1ccc(O)c(O)c1)C(C)Cc1ccc(O)c(O)c1 (stereo unspecified)")
0.645
>>> number("COc1cccc(S(=O)(=O)N2CCCC(c3nnc(C(F)(F)F)o3)C2)c1 (stereo unspecified)")
1.08
>>> number("CCN(CC)c1ccc(C=NNc2cc(N3CCOCC3)nc(N3CCOCC3)n2)cc1")
1.03
>>> number("CCN(CC)c1ccc(C=NNC(=O)c2ccncc2)c(O)c1")
1.66

Okay, now this molecule:
// lookup NF-kB reporter for `CC(C)(C)NCC(=O)Nc1ccc(S(N)(=O)=O)cc1` 0.821

###

System: RAW-Dual (murine macrophage reporter line)
Assay: viability score (confluency relative to resting cells, overnight) (fraction); higher = more viable, active = viable (0.7 or more)
Details: modulator concentration 10 µM
measure_name: viability score
Give a plain numeric answer without units written out.

>>> number("CCCC(=O)Nc1ccc(N2CCCCC2)cc1")
0.985
>>> number("Cc1ccccc1N(CC(=O)NCCSc1ccc(Cl)cc1)S(=O)(=O)c1ccccc1")
1
>>> number("CC(C)C(C(=O)Nc1ccc(F)cc1)N1C(=O)c2ccccc2C1=O (stereo not given)")
1.02
>>> number("Cc1cnc(Nc2ccc(OCCN3CCCC3)cc2)nc1Nc1cccc(S(=O)(=O)NC(C)(C)C)c1")
0.0864
>>> number("C=CCn1c(S)nnc1-c1cc(OC)c(OC)c(OC)c1")
1.03
>>> number("COC1CC2CCC(C1)N2S(=O)(=O)c1ccc(Br)cc1 (stereo not given)")
1.01

// lookup viability score for `O=[N+]([O-])c1ccc(-n2cccc2C=NNc2nc(N3CCOCC3)nc(N3CCOCC3)n2)cc1` 1

Now consider `O=C(NCCc1nc(C2CC2)cc(C(F)(F)F)n1)c1c(F)cccc1Cl` . 1

Now consider `CN1CCN(CCCN2c3ccccc3Sc3ccc(S(=O)(=O)N(C)C)cc32)CC1` . 0.149

Now consider `Cn1cnc2cc(NCc3ccc(Br)cc3)ccc21` . 0.984

###

Tested on: RAW-Dual (murine macrophage reporter line)
Assay: NF-kB reporter (SEAP) activity fold change vs agonist alone; higher = enhanced NF-kB activity
Conditions: modulator concentration 10 µM; agonist: MPLA […]
Give rule met when the value for NF-kB reporter is at least 1. Give rule not met when it is less.

Does the compound `Br.Cc1ccc(Sc2ccccc2N2CCNCC2)c(C)c1` have recorded NF-kB reporter that is 1 or more? rule met

Now consider `CC(=O)c1cc2c(o1)C(=O)c1ccccc1C2=O` . rule met

Now consider `Clc1ccc(Nc2nc(Nc3ccc(Cl)cc3)nc(N3CCOCC3)n2)cc1` . rule met

Now consider `Cc1c(NC(=S)NC(=O)c2ccccc2[N+](=O)[O-])cccc1-c1nc2ccccc2s1` . rule not met

Now consider `O=C(NCC#CCN1CCc2ccccc2C1)c1cccc(Br)c1` . rule not met
